System: Caco-2
procedureDetails: cell viability relative to DMSO; higher = less toxic
assaySetup: 72 h; 10 nM
Where a name gives a salt, the structure may show the parent alone.
measure: cell viability (%)
Please give a number only; it is taken to be in %.

Worked examples, 5 compounds total:
INSERT INTO measurements (compound, measure, experimentalvalue) VALUES
  ('CCC(C(=O)O)c1ccc(CC(C)C)cc1 (centres undefined)', 'cell viability', 92.8),
  ('O=C(CCBr)N1CCN(C(=O)CCBr)CC1', 'cell viability', 115),
  ('CCCCOc1ccc(OCCCN2CCOCC2)cc1', 'cell viability', 109),
  ('CN(C)CCOc1ccc(/C(=C(/CCCl)c2ccccc2)c2ccccc2)cc1 [Toremifene citrate]', 'cell viability', 98.8),
  ('CN1C(=O)C(N2CCCCC2)S/C1=C\C(=O)O (centres undefined)', 'cell viability', 96.7);

The compound identified as COc1cc(C(C)=O)ccc1O registered its cell viability at 94.2

Entry Nc1n[n+]([O-])c2ccccc2[n+]1[O-] ; cell viability = 102

cell viability for CN(NC(=O)CC(=O)NN(C)C(=S)c1ccccc1)C(=S)c1ccccc1 is 74.4

// cell viability value for Cc1c(I)c(=O)n(-c2ccccc2)n1C [iodoantipyrine] : 104

====

Test system: Caco-2
procedureDetails: cell viability relative to DMSO; higher = less toxic
assaySetup: 72 h; 1 nM
# cell viability per record follows
Quick reminder: number only, in %, skip the unit.

See these solved cases before continuing.
INSERT INTO results (compound, quantityunit, experimentalvalue) VALUES
  ('CN(C)CCOc1ccc(/C(=C(/CCCl)c2ccccc2)c2ccccc2)cc1 [toremifene]', '%', 100),
  ('COP(=O)(OC)OC(c1ccc(Cl)cc1)P(=O)(OC)OC (stereo not drawn) [mifobate]', '%', 106);

So the reported cell viability for Nc1n[n+]([O-])c2ccccc2[n+]1[O-] [tirapazamine] , on Caco-2, turned out to be 99.9

====

Consider the following compounds and their measured cell viability readings.
Tested on: Caco-2
procedureDetails: cell viability relative to DMSO; higher = less toxic
assaySetup: 72 h; 1000 nM
Report only the number, with the unit % understood.

INSERT INTO assay_data (compound, assaytarget, quantityunit, experimentalvalue) VALUES
  ('COc1ccc2nc(NC(=O)Nc3ccccc3)sc2c1', 'Caco-2', '%', 88.2),
  ('Cc1ccc(C23CNCC2C3)cc1 (configuration not stated)', 'Caco-2', '%', 110),
  ('COc1ccc(CCNCc2ccc(OCc3ccc(Cl)nc3)c(OC)c2)cc1OC', 'Caco-2', '%', 98.2),
  ('CCCCC(F)(F)[C@@]1(O)CC[C@H]2[C@@H](CC(=O)[C@@H]2CCCCCCC(=O)O)O1', 'Caco-2', '%', 103),
  ('N#Cc1c[nH]c2c(C(=O)N3CCN(CCc4ccc(F)cc4)CC3)cccc12', 'Caco-2', '%', 98.1);

Lab note: NC(=O)C1=CN([C@@H]2O[C@H](COP(=O)(O)OP(=O)(O)OC[C@H]3O[C@@H](n4cnc5c(N)ncnc54)[C@H](OP(=O)(O)O)[C@@H]3O)[C@@H](O)[C@H]2O)C=CC1 gave cell viability of 93

What the record says about c1ccc2c(CCNc3ccc(Nc4ccncc4)cc3)c[nH]c2c1 : cell viability is 92.1
